# tested target: CCK-1 receptor (Homo sapiens, UniProt P32238)
# Sequence (P32238 1-428): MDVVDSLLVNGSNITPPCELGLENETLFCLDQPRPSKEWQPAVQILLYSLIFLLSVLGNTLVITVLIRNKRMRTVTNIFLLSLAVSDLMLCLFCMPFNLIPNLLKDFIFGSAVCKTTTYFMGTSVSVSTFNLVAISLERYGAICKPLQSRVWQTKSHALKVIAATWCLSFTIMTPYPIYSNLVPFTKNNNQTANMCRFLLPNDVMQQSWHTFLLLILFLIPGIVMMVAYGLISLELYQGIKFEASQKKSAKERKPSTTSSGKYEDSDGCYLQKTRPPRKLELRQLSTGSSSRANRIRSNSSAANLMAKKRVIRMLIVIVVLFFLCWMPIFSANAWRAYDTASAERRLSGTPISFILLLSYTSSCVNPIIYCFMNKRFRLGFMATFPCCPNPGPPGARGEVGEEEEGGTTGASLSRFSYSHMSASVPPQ
observed property: pKi
Give bare numbers, as −log10 of the molar value.

Sample records with pKi:
[Q] Entry COc1ccc(-n2nc(CC(C(=O)O)c3coc4ccccc34)cc2-c2ccc3c(c2)OCO3)cc1 (stereo not drawn) [Example 262] , system CCK-1 receptor (Homo sapiens, UniProt P32238): what pKi was measured?
[A] 7.90

[Q] Entry Clc1cccc(C(Cc2cc(-c3ccc4c(c3)OCO4)n(-c3cc(Cl)ccc3Cl)n2)c2nnn[nH]2)c1 (stereo not drawn) [Example 132] , system CCK-1 receptor (Homo sapiens, UniProt P32238): what pKi was measured?
[A] 8.00

[Q] Entry Cc1ccc(-c2cc(CC(C(=O)O)c3cccc(C)c3)nn2-c2ccc(Cl)cc2)cc1 (stereo not drawn) [Example 155] , system CCK-1 receptor (Homo sapiens, UniProt P32238): what pKi was measured?
[A] 8.00

[Q] Entry Cc1ccc(-c2cc(CC(C(=O)O)c3ccc4c(c3)OCO4)nn2-c2ccc(Cl)c(Cl)c2)cc1 (stereo not drawn) [Example 189] , system CCK-1 receptor (Homo sapiens, UniProt P32238): what pKi was measured?
[A] 7.40

// each listed compound needs a value for pKi
1. COc1ccc(-n2nc(C[C@@H](C(=O)O)c3cccc(C)c3)cc2-c2ccc(Cl)c(Cl)c2)cc1 [Example 3]
2. Cc1cccc([C@H](Cc2cc(-c3ccc4ccccc4c3)n(-c3ccccn3)n2)C(=O)O)c1 [Example 92]
3. Cc1cccc(C(Cc2cc(-c3ccc(N(C)C)cc3)n(-c3ccc(OC(F)(F)F)cc3)n2)C(=O)O)c1 (stereo not drawn) [Example 287]
4. COc1ccc(-n2nc(CC(C(=O)O)c3cccc4ccccc34)cc2-c2ccc(Cl)c(Cl)c2)cc1 (stereo not drawn) [Example 210]
5. Cc1ccc(-c2cc(CC(CS(=O)(=O)c3ncn[nH]3)c3cccc(C)c3)nn2-c2ccc(C)cc2)cc1 (stereo not drawn) [Example 137]

[A]
[6.60, 8.20, 7.70, 7.90, 8.00]

// each listed compound needs a value for pKi
1. COc1ccc(-n2nc(/C=C(\C(=O)O)c3ccc(Cl)c(Cl)c3)cc2-c2ccc(Cl)c(Cl)c2)cc1 [Example 118]
2. COc1ccc(-n2nc(C[C@H](C(=O)O)c3cccc(C)c3)cc2-c2ccc(Cl)c(Cl)c2)cc1 [Example 1]
3. COc1ccc(-c2cc(C[C@H](C(=O)O)c3cccc(OC)c3)nn2-c2ccc(OC)cc2)cc1 [Example 32]

[A]
1. 8.30
2. 8.00
3. 7.20

// each listed compound needs a value for pKi
1. COc1cccc(C(Cc2cc(-c3ccc(C)cc3)n(-c3ccc(C(F)(F)F)cc3)n2)C(=O)O)c1 (stereo not drawn) [Example 177]
2. COc1cccc2cc(-c3cc(CC(C(=O)O)c4cccc(C)c4)nn3-c3ccc(C)cc3)oc12 (stereo not drawn) [Example 311]
3. COc1ccc(-n2nc(CC(C(=O)N3CCN(C)CC3)c3cccc(C)c3)cc2-c2ccc(C)cc2)cc1 (stereo not drawn) [Example 68]

[A]
1: 7.90; 2: 7.70; 3: 6.60
